# Test system: BxPC-3 (Pancreatic Carcinoma)
# assayExplanation: combination Emax (second highest fraction inhibited in the dose matrix, 72 h); higher = more inhibition; extreme values may be limits of the assay
Known combination Emax of a selection of molecules
Field format: numeric only.

COc1cc2ncnc(Nc3ccc(F)c(Cl)c3)c2cc1OCCCN1CCOCC1 [Gefitinib] + CC(C)n1c(=O)n(C)c2cnc3cc(F)c(-c4ccc(OCCCN5CCCCC5)nc4)cc3c21 [AZD1390] (first compound max 10 µM, 7x7, partner max 0.3 µM) :: 0.285

# next molecule below
Entry under test: CS(=O)(=O)CCNCc1ccc(-c2ccc3ncnc(Nc4ccc(OCc5cccc(F)c5)c(Cl)c4)c3c2)o1 [Lapatinib] + C[C@@H](Oc1cc(-c2cnn(C3CCNCC3)c2)cnc1N)c1c(Cl)ccc(F)c1Cl [Crizotinib] (first compound max 10 µM, 7x7, partner max 10 µM) . Its combination Emax was 0.946

* * *

# Test system: MOLP-8 (Plasma Cell Myeloma)
# assayExplanation: combination Emax (second highest fraction inhibited in the dose matrix, 72 h); higher = more inhibition; extreme values may be limits of the assay
Known combination Emax of a selection of compounds
Field format: numeric only.

Some compounds with known combination Emax results, for comparison:
Cc1c2c(nn1C)CSCc1cc(n(C)n1)CSc1cc(c3ccccc3c1)OCCCc1c(C(=O)O)n(C)c3c-2c(Cl)ccc13 [AZD5991] + CCN(CCO)CCCOc1ccc2c(Nc3cc(CC(=O)Nc4cccc(F)c4)[nH]n3)ncnc2c1 [AZD2811] (first compound max 1 µM, 7x7, partner max 1 µM) :: 1
CC(=O)c1c(C)c2cnc(Nc3ccc(N4CCNCC4)cn3)nc2n(C2CCCC2)c1=O [Palbociclib] + Cn1cnc2c(F)c(Nc3ccc(Br)cc3Cl)c(C(=O)NOCCO)cc21 [Selumetinib] (first compound max 10 µM, 7x7, partner max 10 µM) :: 0.553
Cn1cnc2c(F)c(Nc3ccc(Br)cc3Cl)c(C(=O)NOCCO)cc21 [Selumetinib] + C[C@@H]1COCCN1C2=NC(=NC(=C2)C3(CC3)[S@](=N)(=O)C)C4=C5C=CNC5=NC=C4 [AZD6738] (first compound max 10 µM, 7x7, partner max 10 µM) :: 0.832

# next compound below
Entry under test: Cc1c2c(nn1C)CSCc1cc(n(C)n1)CSc1cc(c3ccccc3c1)OCCCc1c(C(=O)O)n(C)c3c-2c(Cl)ccc13 [AZD5991] + CN(C)CCCOc1ccc(-c2ccc3ncc4c(c3c2)n(C2CCOCC2)c(=O)n4C)cn1 [AZD0156] (first compound max 1 µM, 7x7, partner max 1 µM) . Its combination Emax was 1

* * *

# Tested on: DBTRG-05MG (Glioblastoma);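 also: after 72 h of two-drug dosing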
# assayExplanation: Bliss excess, mean over the matrix (fraction); higher = more synergy
Give Condition met when the value for Bliss excess is at least -0.02. Give Condition not met when it is less.

NC1(C(=O)N[C@@H](CCO)c2ccc(Cl)cc2)CCN(c2ncnc3[nH]ccc23)CC1 [Capivasertib] + COc1nnc2ccc(N3CCC(c4ccc(OCCN5CCN(C)C(=O)[C@H]5C)cc4)CC3)nn12 [AZD5153] (first compound max 10 µM, 7x7, partner max 1 µM) :: Condition not met
CC1(C)CCC(CN2CCN(c3ccc(C(=O)NS(=O)(=O)c4ccc(NCC5CCOCC5)c([N+](=O)[O-])c4)c(Oc4cnc5[nH]ccc5c4)c3)CC2)=C(c2ccc(Cl)cc2)C1 [Venetoclax] + C=CCn1c(=O)c2cnc(Nc3ccc(N4CCN(C)CC4)cc3)nc2n1-c1cccc(C(C)(C)O)n1 [AZD1775] (first compound max 1 µM, partner max 1 µM) :: Condition not met
CC1(C)CCC(CN2CCN(c3ccc(C(=O)NS(=O)(=O)c4ccc(NCC5CCOCC5)c([N+](=O)[O-])c4)c(Oc4cnc5[nH]ccc5c4)c3)CC2)=C(c2ccc(Cl)cc2)C1 [Venetoclax] + CN(C)CCCOc1ccc(-c2ccc3ncc4c(c3c2)n(C2CCOCC2)c(=O)n4C)cn1 [AZD0156] (first compound max 1 µM, 7x7, partner max 1 µM) :: Condition met
CCc1c2c(nc3ccc(O)cc13)-c1cc3c(c(=O)n1C2)COC(=O)[C@]3(O)CC [SN-38] + CN(C)CCCOc1ccc(-c2ccc3ncc4c(c3c2)n(C2CCOCC2)c(=O)n4C)cn1 [AZD0156] (first compound max 0.3 µM, 7x7, partner max 1 µM) :: Condition met
CC1(C)CCC(CN2CCN(c3ccc(C(=O)NS(=O)(=O)c4ccc(NCC5CCOCC5)c([N+](=O)[O-])c4)c(Oc4cnc5[nH]ccc5c4)c3)CC2)=C(c2ccc(Cl)cc2)C1 [Venetoclax] + C1CN(CCC1(C(=O)N[C@@H](CCO)C2=CC=C(C=C2)Cl)N)C3=NC=NC4=C3C=CN4 [Capivasertib] (first compound max 1 µM, 7x7, partner max 3 µM) :: Condition not met

Task: Kindly determine if Bliss excess recorded for Cc1cc2ncnn2cc1Nc1ncc2c(n1)n(C1CCOCC1)c(=O)n2C [AZD7648] + CCN(CCO)CCCOc1ccc2c(Nc3cc(CC(=O)Nc4cccc(F)c4)[nH]n3)ncnc2c1 [AZD2811] (first compound max 10 µM, 7x7, partner max 1 µM) is above or exactly -0.02.
Result: Condition met

Task: Kindly determine if Bliss excess recorded for Cc1c2c(nn1C)CSCc1cc(n(C)n1)CSc1cc(c3ccccc3c1)OCCCc1c(C(=O)O)n(C)c3c-2c(Cl)ccc13 [AZD5991] + CN(C)CCCOc1ccc(-c2ccc3ncc4c(c3c2)n(C2CCOCC2)c(=O)n4C)cn1 [AZD0156] (first compound max 1 µM, 7x7, partner max 1 µM) is above or exactly -0.02.
Result: Condition met

* * *

# Test system: SNU-C2B (Colorectal Carcinoma)
# assayExplanation: combination Emax (second highest fraction inhibited in the dose matrix, 72 h); higher = more inhibition; extreme values may be limits of the assay
Known combination Emax of a selection of compounds

CC1(C)CCC(CN2CCN(c3ccc(C(=O)NS(=O)(=O)c4ccc(NCC5CCOCC5)c([N+](=O)[O-])c4)c(Oc4cnc5[nH]ccc5c4)c3)CC2)=C(c2ccc(Cl)cc2)C1 [Venetoclax] + C[C@@H](Nc1cc(F)cc(F)c1)c1cc(C(=O)N(C)C)cc2c(=O)cc(N3CCOCC3)oc12 [AZD8186] (first compound max 1 µM, 7x7, partner max 3 µM) :: 0.125

# next compound below
Entry under test: CN(CCO)CC[C@H](CSc1ccccc1)Nc1ccc(S(=O)(=O)NC(=O)c2ccc(N3CCC([C@@H](O)c4ccccc4-c4ccc(Cl)cc4)CC3)cc2)cc1S(=O)(=O)C(F)(F)F [AZD4320] + C[C@@H]1COCCN1C2=NC(=NC(=C2)C3(CC3)[S@](=N)(=O)C)C4=C5C=CNC5=NC=C4 [AZD6738] (first compound max 1 µM, 7x7, partner max 10 µM) . Its combination Emax was 0.636

* * *

Known combination Emax of a selection of compounds
# System: MDA-MB-415 (Breast Carcinoma)
# assayExplanation: combination Emax (second highest fraction inhibited in the dose matrix, 72 h); higher = more inhibition; extreme values may be limits of the assay

Some compounds with known combination Emax results, for comparison:
NC1(C(=O)N[C@@H](CCO)c2ccc(Cl)cc2)CCN(c2ncnc3[nH]ccc23)CC1 [Capivasertib] + Cn1cnc2c(F)c(Nc3ccc(Br)cc3Cl)c(C(=O)NOCCO)cc21 [Selumetinib] (first compound max 10 µM, 7x7, partner max 10 µM) :: 0.85
COc1cc2c(cc1OCCCCCOc1cc3c(cc1OC)C(=O)N1C=C(C)C[C@H]1C=N3)N=C[C@@H]1CC(C)=CN1C2=O [SG3199] + O=C(c1cc(Cc2n[nH]c(=O)c3ccccc23)ccc1F)N1CCN(C(=O)C2CC2)CC1 [Olaparib] (first compound max 0.001 µM, 7x7, partner max 10 µM) :: 0.0958

# next compound below
Record for NC1(C(=O)N[C@@H](CCO)c2ccc(Cl)cc2)CCN(c2ncnc3[nH]ccc23)CC1 [Capivasertib] + CC(C)n1c(=O)n(C)c2cnc3cc(F)c(-c4ccc(OCCCN5CCCCC5)nc4)cc3c21 [AZD1390] (first compound max 10 µM, 7x7, partner max 0.3 µM) under target or system MDA-MB-415 (Breast Carcinoma): combination Emax reported as 0.846

* * *

Known combination Emax of a selection of compounds
# Test system: T47D (Breast Carcinoma)
# assayExplanation: combination Emax (second highest fraction inhibited in the dose matrix, 72 h); higher = more inhibition; extreme values may be limits of the assay
Field format: numeric only.

Some compounds with known combination Emax results, for comparison:
CC1(C)CCC(CN2CCN(c3ccc(C(=O)NS(=O)(=O)c4ccc(NCC5CCOCC5)c([N+](=O)[O-])c4)c(Oc4cnc5[nH]ccc5c4)c3)CC2)=C(c2ccc(Cl)cc2)C1 [Venetoclax] + Cn1cnc2c(F)c(Nc3ccc(Br)cc3Cl)c(C(=O)NOCCO)cc21 [Selumetinib] (first compound max 1 µM, 7x7, partner max 3 µM) :: 0.0758
COc1cccc(OCCCN)c1-c1cc(Nc2cnc(C#N)cn2)n[nH]1 [Prexasertib] + CCc1c2c(nc3ccc(O)cc13)-c1cc3c(c(=O)n1C2)COC(=O)[C@]3(O)CC [SN-38] (first compound max 1 µM, 7x7, partner max 0.3 µM) :: 0.784
Cc1c2c(nn1C)CSCc1cc(n(C)n1)CSc1cc(c3ccccc3c1)OCCCc1c(C(=O)O)n(C)c3c-2c(Cl)ccc13 [AZD5991] + C[C@@H]1COCCN1C2=NC(=NC(=C2)C3(CC3)[S@](=N)(=O)C)C4=C5C=CNC5=NC=C4 [AZD6738] (first compound max 1 µM, 7x7, partner max 10 µM) :: 0.44

# next compound below
Record for CS(=O)(=O)CCNCc1ccc(-c2ccc3ncnc(Nc4ccc(OCc5cccc(F)c5)c(Cl)c4)c3c2)o1 [Lapatinib] + C[C@@H](Oc1cc(-c2cnn(C3CCNCC3)c2)cnc1N)c1c(Cl)ccc(F)c1Cl [Crizotinib] (first compound max 10 µM, 7x7, partner max 10 µM) under target or system T47D (Breast Carcinoma): combination Emax reported as 0.525
